System: MCF-7 cells
protocolSummary: Breast cancer cell viability assay (CellTiter-Glo, 5 days)
Format: cell-based
testSettings: Homo sapiens, MCF7, 120 h, 5 days' compound exposure
testReadout: IC50

Known IC50 results, listed for orientation:
- compound: "CC/C(=C(/c1ccc(/C=C/C(=O)O)cc1)c1ccc2[nH]ncc2c1)c1cccc(Oc2ccccc2)c1 [Compound 261]"
  observedResult: "≤ 100 nM"
- compound: "CC/C(=C(/c1ccc(/C=C/C(=O)O)cc1)c1ccc2[nH]ncc2c1)c1csc(-c2ccccc2)c1 [Compound 271]"
  observedResult: "≤ 100 nM"
- compound: "CC/C(=C(/c1ccc(-c2cc(O)no2)cc1)c1ccc2[nH]ncc2c1)c1ccc(F)cc1Cl [Compound 333]"
  observedResult: "≤ 100 nM"

stdin: I am curious: what IC50 value has been reported for CC/C(=C(/c1ccc(/C=C/C(=O)O)cc1)c1ccc2[nH]ncc2c1)c1ccccc1-c1ccccc1 [Compound 28] ?
stdout: > 100 nM

stdin: I am curious: what IC50 value has been reported for CC/C(=C(/c1ccc(-c2cc(O)on2)cc1)c1ccc2[nH]ncc2c1)c1ccc(F)cc1Cl [Compound 334] ?
stdout: > 100 nM

stdin: I am curious: what IC50 value has been reported for CC/C(=C(/c1ccc(/C=C/C(=O)O)cc1)c1cc2ccccc2s1)c1ccccc1 [Compound 142] ?
stdout: ≤ 100 nM

stdin: I am curious: what IC50 value has been reported for CC/C(=C(/c1ccc(/C=C/C(=O)O)cc1)c1ccc2scnc2c1)c1ccc(F)cc1C [Compound 282] ?
stdout: ≤ 100 nM
